- MEASUREMENT_TARGET: T1, LNX2_2, Q8N448
- T1 sequence (Q8N448 334-432, limits assumed, looked up): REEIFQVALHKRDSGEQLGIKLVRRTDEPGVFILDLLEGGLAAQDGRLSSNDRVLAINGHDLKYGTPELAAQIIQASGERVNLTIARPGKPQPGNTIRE
- ASSAY_OVERVIEW: holdup assay
- Parameters: key: below the threshold = too weak to quantify, mostly under pKd 3.1 to 4
- TEST_PARAMETERS: plain residues with an end cap or a label only (N-terminal biotin on a linker: ado-ado)
Class Condition met: pKd at least 4. Class Condition not met: pKd below 4.

Prompt: Can QRYPGNQTTC [CCL24, O00175] be said to have pKd at or above 4?
Response: Condition not met

Prompt: Next entry: KIEDVEITLV [FCHSD2, O94868]
Response: Condition met

Prompt: Next entry: PLPPEEESWV [GAS2L2, Q8NHY3]
Response: Condition met

Prompt: Next entry: PLATCDETSI [SEMA4F, O95754]
Response: Condition not met

Prompt: Next entry: NSTHNLKDYV [CLDN20, P56880]
Response: Condition met

Origin of the recorded values: paper PMC9482650
